TARGET OR SYSTEM: Glucose transporter (Leishmania mexicana) (UniProt O61059)
ASSAY REMARKS: ST_JUDE_LEISH: Cytotoxicity at 2uM final concentration against transgenic Leishmania Mexicana promastigotes LmGT2 that are glucose transport deficient and complemented with the L. Mexicana glucose transporter 2. Activity is measured by DNA content using SYBR green in vitro
Assay type: functional
METRIC NAME: inhibition (%)
Reply numerically in %, unit not repeated.

CCn1c(-c2nonc2N)nc2c(-c3cccc(NC(=O)Nc4ccc(C(F)(F)F)cc4)c3)ncc(OCCCN)c21; 3.54
O=C(NCC1CCC(C(=O)NC2CCCc3ccccc32)CC1)c1ccc(O)c(-c2cccc([N+](=O)[O-])c2)c1 (centres undefined); 2.39
COc1ccc2nccc([C@@H](O)CN3CCC(c4cc(-c5ccc(Cl)cc5)[nH]n4)CC3)c2n1; 81.2

Would you kindly share the measured inhibition for O=[N+]([O-])c1cccc(CNCC2CCN(Cc3ccc(Cl)c(Cl)c3)CC2)c1 ?
12.9

Now this one: O=C(/C=C/c1ccc(F)cc1)NC1CCC(CCN2CCc3ccccc3CC2)CC1 (centres undefined)
2.76

Now this one: COc1cc(OC)cc(C(=O)Nc2nc(-c3ccc(NC(=O)c4ccccc4)cc3)cs2)c1
5.46

Now this one: O=S(=O)(Nc1cccc(CCN2CCC(N3CCCCC3)CC2)c1)c1ccc(Oc2ccccc2)cc1
2.69

Now this one: CCN(CC)CCNc1ccnc2[nH]c3ccc(Cl)cc3c12
-0.03

Now this one: CSC1=NC(C)(C)CC2(CC(c3cccc(C)c3)c3cc(Cl)c(O)cc3O2)N1 (centres undefined)
0.47

Now this one: COc1ccc(CNc2ncc(-c3ccsc3)c(-c3nccs3)n2)cc1OC
2.07

Now this one: Cc1noc(C)c1C(=O)N1CCCC(c2[nH]c3c(C)cccc3c2-c2ccncc2)C1 (centres undefined)
2

Now this one: CCc1cccc(-n2c(=O)c3cccnc3n2CC(=O)NC2CCCC2)c1
4.05

Now this one: O=C(/C=C/c1ccc(Cl)c(Cl)c1)NCCCCCN1CCC(c2c[nH]c3c(-c4ccccc4)cccc23)CC1
3.07

Now this one: COc1cc(NC2CCCC(NCc3cn(S(=O)(=O)c4ccccc4)c4ccccc34)C2)nc2ccccc12 (centres undefined)
2.67

Now this one: CN(C)c1ccc(-c2csc(C(=O)NCC3CCN(Cc4cccc(C(F)(F)F)c4)C3)c2)cc1 (centres undefined)
9.26

Now this one: COc1cccc(Nc2nc(Nc3cccc(C#N)c3)cc(-c3ccncc3)n2)c1
1.57

Now this one: O=C(NCCCCN1CCC(c2ccc3c(c2OCCCO)CCCC3)CC1)c1ccc(-c2ccc(C(F)(F)F)cc2)c(CO)c1
-0.61

Now this one: COc1ccc(CNCc2ccc(F)cc2)cc1-c1ccc(S(=O)(=O)NCCN2CCCC2)s1
5.96

Now this one: CCN1CCN(CCCNc2c3ccccc3nc3ccccc23)CC1
39.1

* * *

inhibition values by entry
TARGET OR SYSTEM: Glucose transporter (Leishmania mexicana) (UniProt O61059)
ASSAY REMARKS: ST_JUDE_LEISH: Cytotoxicity at 2uM final concentration against transgenic Leishmania Mexicana promastigotes LmGT2 that are glucose transport deficient and complemented with the L. Mexicana glucose transporter 2. Activity is measured by DNA content using SYBR green in vitro
Type: functional
Reply numerically in %, unit not repeated.

For orientation, consider the following solved cases.
Cc1cc(N[C@@H](Cc2ccccc2)C(=O)NCCOc2ccccc2)nc(NCCc2ccccn2)n1; 3.94
COc1ccc2nccc([C@@H](O)CN3CCC(NCc4cc5ccccc5[nH]4)CC3)c2c1; 4.85

Lab note: need inhibition for CC1(C)CCCN(Cc2c(O)ccc3c(O)c(-c4nc5ccccc5s4)c(=N)oc23)C1 on Glucose transporter (Leishmania mexicana) (UniProt O61059), anyone have it?
-2.9

Now this one: Cc1c2ccc(N(C)c3ccnc(Nc4ccc5c(c4)nc(NC(C)C)n5C)n3)cc2nn1C
-1.42

Now this one: Cc1cc(NC(=O)NCCN2CCC(NS(=O)(=O)c3ccc(Br)cc3)C2)c2ccccc2n1 (centres undefined)
3.49

Now this one: Fc1cccc(Nc2nc(NCc3ccc4ccsc4c3)nc(Nc3cccc(F)c3)n2)c1
10.6

Now this one: O=C(Nc1ccc(Cn2ncc(N3CCNCC3)c(Cl)c2=O)cc1)Nc1ccc(-c2ccccc2)cc1
-0.78

Now this one: CC(Cc1ccc(NC(=O)c2ccc(CNCCCCc3ccccc3)cc2)cc1)NCCc1cccc(Cl)c1 (centres undefined)
105

* * *

TARGET OR SYSTEM: Glucose transporter (Leishmania mexicana) (UniProt O61059)
ASSAY REMARKS: ST_JUDE_LEISH: Cytotoxicity at 2uM final concentration against transgenic Leishmania Mexicana promastigotes LmGT2 that are glucose transport deficient and complemented with the L. Mexicana glucose transporter 2. Activity is measured by DNA content using SYBR green in vitro
Assay type: functional
inhibition values by entry
Reply numerically in %, unit not repeated.

CCOC(=O)c1ccc(Nc2cc(Nc3ccc(C(=O)OCC)cc3)nc(C)n2)cc1; 3.24
COc1cccc(OC)c1OCCCOc1c(C)nc(N)nc1N; 0.4
COc1ccc2[nH]c(C)cc(=NN=Cc3ccc(F)cc3)c2c1; 1.88

Would you kindly share the measured inhibition for Cc1ccc(NC(=O)N2CCC(n3c(-c4ccccc4)nc4cccnc43)CC2)cc1F ?
5.43

Now this one: COc1cc(C2=NN(S(=O)(=O)c3c(C)cc(C)cc3C)CCCC2)ccc1Cl
3.33

Now this one: Cn1cncc1C(=O)Nc1cccc(-c2cccc(-c3nc4cc(C(F)(F)F)ccc4[nH]3)c2)c1
-0.89

* * *

TARGET OR SYSTEM: Hexose transporter 1 (Plasmodium falciparum)
ASSAY REMARKS: ST_JUDE_LEISH: Cytotoxicity at 2uM final concentration against transgenic Leishmania Mexicana promastigotes LmPfHT that are glucose transport deficient and complemented with the Plasmodium falciparum hexose transporter. Activity is measured by DNA content using SYBR green in vitro
Format: functional
inhibition values by entry
Reply numerically in %, unit not repeated.

For orientation, consider the following solved cases.
NC(=O)c1ccc(-c2ccc3ccnc(N)c3c2)cc1; 6.12
O=C(CCCCCNC(=O)c1ccc(O)c(-c2ccc(Cl)c(Cl)c2)c1)NCCN1CCCCC1; 2.46
CCOC(=O)c1ccc(-c2c(C(F)(F)F)noc2-c2cc(CC)c(OC)cc2O)o1; 2.22
Cc1cc(NCCC(=O)Nc2ccccc2)nc(NCc2ccccc2C)n1; 10.5
CC(CN(C)C)C(=O)Nc1ccc(-c2csc(-c3nc4ccccc4[nH]3)c2)cc1 (stereo not given); 3.49

Would you kindly share the measured inhibition for CCCCCN1CCCC(CNS(=O)(=O)c2ccc(C(=O)Nc3ccc(C(F)(F)F)cc3)cc2)C1 (stereo not given) ?
-0.37

Now this one: O=C(/C=C/c1ccc(Cl)c(Cl)c1)NC1CCC(CN2CCC(c3nc4ccccc4n3CCCO)CC2)CC1 (stereo not given)
1.32

Now this one: CC(CCc1ccccc1)NCC(O)c1ccc2c(c1)S(=O)(=O)c1ccccc1N2 (stereo not given)
1.25

Now this one: N#Cc1ccc(N2CCN(Cc3cccc(-c4cccc(-c5nc6cc(C(F)(F)F)ccc6[nH]5)c4)c3)CC2)nc1
0.73

Now this one: Cc1cccc2nc(-c3cccc(-c4cccc(NC(=O)Nc5ccsc5)c4)c3)[nH]c12
4.46

* * *

inhibition values by entry
TARGET OR SYSTEM: Glucose transporter (Leishmania mexicana) (UniProt O61059)
ASSAY REMARKS: ST_JUDE_LEISH: Cytotoxicity at 2uM final concentration against transgenic Leishmania Mexicana promastigotes LmGT2 that are glucose transport deficient and complemented with the L. Mexicana glucose transporter 2. Activity is measured by DNA content using SYBR green in vitro
Format: functional
Reply numerically in %, unit not repeated.

For orientation, consider the following solved cases.
O=c1cc(NCCC(CNCc2cc3ccccc3o2)NCc2cc(Br)cc(Br)c2)[nH]c2ccccc12 (centres undefined); 2.33
c1ccc(CCNCc2cccc(-c3ccccc3CNCc3ccc4c(c3)OCO4)c2)nc1; 0.68

Lab note: need inhibition for COc1cc(NC(=O)c2ccc3oc4ccccc4c3c2)ccc1OCCN1CCCCC1 on Glucose transporter (Leishmania mexicana) (UniProt O61059), anyone have it?
0.62

Now this one: CC(C)CNCc1cccc(-c2cccc(CN(CCCN3CCN(C)CC3)C(=O)/C=C/c3ccccc3)c2)c1
-4.91

Now this one: O=C(NCc1ccccc1)c1ccc(C(=O)NCC2CNCCO2)cc1 (centres undefined)
9.54

* * *

TARGET OR SYSTEM: Solute carrier family 2, facilitated glucose transporter member 1 (Homo sapiens) (UniProt P11166)
Sequence (P11166 whole entry): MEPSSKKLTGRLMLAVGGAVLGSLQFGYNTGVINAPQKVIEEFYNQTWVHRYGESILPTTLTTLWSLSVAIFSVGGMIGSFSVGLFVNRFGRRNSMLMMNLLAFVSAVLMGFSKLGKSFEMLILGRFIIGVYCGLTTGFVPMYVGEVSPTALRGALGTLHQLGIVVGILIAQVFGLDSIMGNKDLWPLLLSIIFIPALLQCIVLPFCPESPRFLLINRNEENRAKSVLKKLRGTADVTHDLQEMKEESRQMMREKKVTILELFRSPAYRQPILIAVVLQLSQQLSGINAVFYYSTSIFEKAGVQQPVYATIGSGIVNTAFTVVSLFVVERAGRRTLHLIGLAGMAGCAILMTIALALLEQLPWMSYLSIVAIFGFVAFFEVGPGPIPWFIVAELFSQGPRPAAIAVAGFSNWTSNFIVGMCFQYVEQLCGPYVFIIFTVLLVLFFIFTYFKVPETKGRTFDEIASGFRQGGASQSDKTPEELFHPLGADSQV
ASSAY REMARKS: ST_JUDE_LEISH: Cytotoxicity at 2uM final concentration against transgenic Leishmania Mexicana promastigotes LmGLUT1 that are glucose transport deficient and complemented with the human glucose transporter GLUT1. Activity is measured by DNA content using SYBR green in vitro
Type: functional
METRIC NAME: inhibition
Please give the number followed by its unit.

CCNc1cc(C)nc(Nc2ccc(NC(=O)c3c(F)cccc3Cl)cc2)n1; 10.6%

Would you kindly share the measured inhibition for O=C(Nc1ccncc1)Nc1ccc2c(c1)CCN(C1CCC1)CC2 ?
3.98%

Now this one: CC(C)CNCc1cccc(-c2cccc(CN(CCN(C)C)C(=O)Nc3ccccc3)c2)c1
2.46%

Now this one: NC1=NC(CCc2ccccc2)N(c2ccccc2)C(N)=N1 (stereo not given)
10.1%

Now this one: O=C(Nc1ccc(OC2CCN(Cc3ccsc3)C2)c(Cl)c1)c1ccc2ncccc2c1 (stereo not given)
-0.7%
